B1: ALDH8A1 (parent)
chain: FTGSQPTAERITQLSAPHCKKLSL

Variants of: B1
measurement_description: protein stability index of a GFP-peptide fusion (GPS, HEK-293T) (PSI 1-6); higher = more stable;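 note: lentivirally expressed fusions sorted by FACS into six bins by GFP to DsRed ratio, PSI derived from sequencing read proportions per bin multiplied by bin number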
measurement_setup: c terminus: a fixed tail appended
measure: protein stability index
Response field accepts a number only; no unit should be typed.

Give its protein stability index value. Item: FTGSQPTAERITQLSAPHCKKLEL [S23E] 2.56

Queued: FTGSQPTAERITFLSAPHCKKLSL [Q13F] 2.94

Queued: FTGSQPRAERITQLSAPHCKKLSL [T7R] 2.55

Queued: FTGSQPTAERITQLSAPHCMKLSL [K20M] 1.84

Queued: FTGSQPTAERCTQLSAPHCKKLSL [I11C] 2.6

Queued: FTGSQPTAERFTQLSAPHCKKLSL [I11F] 2.9

Queued: FTGSQPTAERITQLSAPYCKKLSL [H18Y] 2.14

Queued: FTGSQPTAERITQLSAPHCKKLSW [L24W] 1.93

Queued: FTGSQPTAERDTQLSAPHCKKLSL [I11D] 3.39

Queued: FTGSQPTAERITQLSAPHCKKASL [L22A] 2.85

Queued: FTGSQPTAELITQLSAPHCKKLSL [R10L] 2.11

Queued: FTGSQPTAERITQLSAPHFKKLSL [C19F] 2.91

Queued: FTGSQPTLERITQLSAPHCKKLSL [A8L] 2.42

Queued: FTGSQPTAERITQLSANHCKKLSL [P17N] 2.55

Queued: FTGSQPTAHRITQLSAPHCKKLSL [E9H] 2.15

Queued: FTGSQPTAERITQLGAPHCKKLSL [S15G] 2.5

Queued: FTGSQPTAERITQLSAPSCKKLSL [H18S] 2.74

Queued: FTGSQPTAERITQLSARHCKKLSL [P17R] 2.49

Queued: FTGSQPTAERITQLSSPHCKKLSL [A16S] 2.17

Queued: FTGSQPTAERITQLSAPHCKKLSA [L24A] 2.6

Queued: FTGSQPTAQRITQLSAPHCKKLSL [E9Q] 2.09

Queued: FTGHQPTAERITQLSAPHCKKLSL [S4H] 2.59
